Listed here are binders together with their documented kon.
Experimental target: T1, recombinant human Tie2 Ig3-FNIII(1-3) domains (human, UniProt Q02763 349-738)
T1 construct: also called hTie2-Ig3-FNIII(1-3)
T1 sequence (Q02763 349-738 limits assumed): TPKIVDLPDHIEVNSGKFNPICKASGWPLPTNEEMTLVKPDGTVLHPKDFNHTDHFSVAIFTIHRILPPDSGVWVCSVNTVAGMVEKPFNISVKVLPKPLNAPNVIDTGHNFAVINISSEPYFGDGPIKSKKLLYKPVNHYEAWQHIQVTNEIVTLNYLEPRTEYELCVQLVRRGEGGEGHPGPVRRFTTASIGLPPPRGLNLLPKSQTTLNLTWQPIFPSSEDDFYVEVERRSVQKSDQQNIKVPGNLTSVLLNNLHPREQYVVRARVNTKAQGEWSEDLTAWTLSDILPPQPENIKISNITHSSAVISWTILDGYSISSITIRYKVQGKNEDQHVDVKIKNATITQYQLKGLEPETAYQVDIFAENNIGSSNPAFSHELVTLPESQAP
Assay overview: BLI (Octet), antibody immobilised on AR2G sensor, recombinant hTie2 as analyte, 1:1 global fit
Express the result in M⁻¹ s⁻¹ but write the number alone.

INSERT INTO results (binder, result_number) VALUES
  ('humanized anti-Tie2 antibody 3H7H12G4 (antibody, V domains shown) VH: QVQLVQSGAEVKKPGASVKVSCKASGYTFTSYWMNWVRQAPGQGLEWMGMIHPSDSETRLNQKFMDRVTMTRDTSTSTVYMELSSLRSEDTAVYYCARGLYGNSWGQGTLVTVSS VL: DIQMTQSPSSLSASVGDRVTITCRASQDIGISLNWLQQEPGKAPKRLIYATSSLDSGVPKRFSGSGSGTEFTLTISSLQPEDFATYYCLQYASSPYTFGQGTKVEIK', 10400);

Now consider a different binder.
Q: Name the reported kon value associated with the binder mouse anti-Tie2 antibody 3H7 (antibody, V domains shown) VH: QVQLQQPGAELVRPGASVKLSCKASGYSFTSYWMNWVKQRPGQGLEWIGMIHPSDSETRLNQKFMDKATLTVDKSSSTAYMQLSSPTSEDSAVYYCARGLYGNSWGQGTLVTVSA VL: DIQMTQSPSSLSASLGERVSLTCRASQDIGISLNWLQQEPDGTIKRLIYATSSLDSGVPKRFSGSRSGSDYSLTISSLESEDFVDYYCLQYASSPYTFGGGTKLEIK
Ans: 558000

Data origin: patent US20250011438A1
